# Tested on: Fibroblast
# Assay: Multiplex assay against human fibroblast
# Type: toxicity, cell-based
# Experimental Conditions: 12 h, 1 µM, compound concentration 1 uM, replicate 1
Please note: Population Apoptotic (%) exactly at 40% is Not satisfied. Only values below 40% get Satisfied.

CC1(COc2ccc3c(c2)ncn3-c2ccc3cccc(N4CCC(N)CC4)c3n2)COC1 [CRENOLANIB] = Not satisfied
CCCN1CCC[C@@H]2Cc3n[nH]cc3C[C@H]21.Cl [QUINPIROLE HYDROCHLORIDE] = Not satisfied
COc1ccc2c(c1)C(C(=O)N(Cc1ccc(N(C)C)cc1)c1ccc(C(C)C)cc1)CCC2.Cl (stereo not drawn) = Not satisfied
CCOc1c2c(c(OCC)c3ncccc13)CN(c1ccc(CS(=O)(=O)NC(=O)Cc3ccccc3OC)cc1C)C2=O = Not satisfied
CNC[C@H](O)c1ccc(O)c(O)c1 [EPINEPHRINE] = Satisfied
Cc1ccc(C(C)(O)c2nc3ccccc3s2)c(C)c1 (stereo not drawn) = Not satisfied

Determine if `Oc1c(CN2CCN(c3ccccn3)CC2)cc(Cl)c2cccnc12` shows Population Apoptotic (%) strictly lower than 40%.
Not satisfied

Determine if `CN(C)CCCc1cc(C(=O)Nc2ccc(-c3ccncc3)cc2)ccc1O.Cl.Cl` shows Population Apoptotic (%) strictly lower than 40%.
Satisfied

Determine if C[C@H]1[C@H]2CC[C@H]3[C@@H]4CC=C5C[C@@H](N(C)C)CC[C@]5(C)[C@H]4CC[C@]23CN1C [CONESSINE] shows Population Apoptotic (%) strictly lower than 40%.
Not satisfied

Determine if `Cc1nc2ccc(Oc3ccc(F)cc3)cc2c(=O)n1C[C@H]1CCCN(C(C)C)C1.Cl` shows Population Apoptotic (%) strictly lower than 40%.
Satisfied

Determine if N[C@@]1(C(=O)O)CO[C@H]2[C@H](C(=O)O)[C@H]21 [LY-379268] shows Population Apoptotic (%) strictly lower than 40%.
Satisfied

Determine if O=C(O)Cc1ccccc1Nc1c(Cl)cccc1Cl [DICLOFENAC] shows Population Apoptotic (%) strictly lower than 40%.
Not satisfied

Determine if `CN(C)c1ccnc2sc3c(=O)n(N4CCCCCC4)cnc3c12` shows Population Apoptotic (%) strictly lower than 40%.
Not satisfied

###

# Test system: Fibroblast
# Assay: Multiplex assay against human fibroblast
# Format: toxicity, cell-based
# Experimental Conditions: 12 h, 1 µM, compound concentration 1 uM, replicate 1
Attribute Measured: Population Fragmented Nuclei (%)
Give bare numbers, in %.

CN(C)CCCc1cc(C(=O)Nc2ccc(-c3ccncc3)cc2)ccc1O.Cl.Cl = 15

Would you be so kind as to report Population Fragmented Nuclei (%) for each listed record?
1. N#Cc1c(N)nc(SCc2csc(-c3ccc(Cl)cc3)n2)c(C#N)c1-c1ccc(OCCO)cc1 [CAPADENOSON]
2. Oc1c(CN2CCN(c3ccccn3)CC2)cc(Cl)c2cccnc12
3. CSc1ccccc1N1CCN(CCCCCC(=O)NC2CCCc3ccccc32)CC1.Cl (stereo not drawn)
4. Cc1ccc(C(C)(O)c2nc3ccccc3s2)c(C)c1 (stereo not drawn)
5. CCCC(CCC)C(=O)O [VALPROIC ACID]

1: 8; 2: 17; 3: 26; 4: 8; 5: 13

Would you be so kind as to report Population Fragmented Nuclei (%) for each listed record?
1. CC[C@H]1OC(=O)[C@H](C)[C@@H](O[C@H]2C[C@@](C)(OC)[C@@H](O)[C@H](C)O2)[C@H](C)[C@@H](O[C@@H]2O[C@H](C)C[C@H](N(C)C)[C@H]2O)[C@@]2(C)CC(C)=C(O2)[C@H](C)[C@@H](O)[C@]1(C)O
2. CCNC1(C(N)=O)CCN(c2ncnc3c2nc(-c2ccccc2Cl)n3-c2ccc(Cl)cc2)CC1 [OTENABANT]
3. C[C@@H]1C[C@H]2[C@@H]3CCC4=CC(=O)C=C[C@]4(C)[C@@]3(F)[C@@H](O)C[C@]2(C)[C@@]1(O)C(=O)CO [DEXAMETHASONE]
4. O=C(O)c1cc2ccccc2c(Cc2c(O)c(C(=O)O)cc3ccccc23)c1O [PAMOIC ACID]
5. CC1(COc2ccc3c(c2)ncn3-c2ccc3cccc(N4CCC(N)CC4)c3n2)COC1 [CRENOLANIB]
6. CCCN1CCC[C@@H]2Cc3n[nH]cc3C[C@H]21.Cl [QUINPIROLE HYDROCHLORIDE]
7. Cc1ccccc1C(=O)Nc1ccc(C(=O)N2CCCC(N(C)C)c3ccccc32)cc1.Cl (stereo not drawn)

1: 13; 2: 19; 3: 18; 4: 10; 5: 27; 6: 14; 7: 16

###

For each of the molecules below, state its Population Hoechst High Intensity Objects (%).
# System: HEK-293T
# Assay: Multiplex assay against HEK293T
# Type: toxicity, cell-based
# Experimental Conditions: human, 24 h, 10 µM, compound concentration 10 uM, replicate 2
Answers are plain numbers, in %.

Look over these answered cases.
Cl.Clc1ccc2nsnc2c1NC1=NCCN1 [TIZANIDINE HYDROCHLORIDE] = 6
CC1(COc2ccc3c(c2)ncn3-c2ccc3cccc(N4CCC(N)CC4)c3n2)COC1 = 63
Cc1ccc(F)cc1C(=O)Nc1ccc(C(=O)N2Cc3cccn3Cc3ccccc32)c(Cl)c1 = 6
Cc1ccc(-c2ccc(F)cc2COc2ccc(CCC(=O)O)cc2)cc1 = 3
CNC[C@H](O)c1ccc(O)c(O)c1 [EPINEPHRINE] = 39

Would you be so kind as to report Population Hoechst High Intensity Objects (%) for each listed record?
1. Cc1ccc(C(C)(O)c2nc3ccccc3s2)c(C)c1 (centres undefined)
2. CCCN1CCC[C@@H]2Cc3n[nH]cc3C[C@H]21.Cl [QUINPIROLE HYDROCHLORIDE]
3. c1cc(OCCCN2CCCCC2)ccc1CN1CCCCC1
4. N#Cc1c(N)nc(SCc2csc(-c3ccc(Cl)cc3)n2)c(C#N)c1-c1ccc(OCCO)cc1

6
2
5
13

###

# Test system: Fibroblast
# Assay: Multiplex assay against human fibroblast
# Type: toxicity, cell-based
# Experimental Conditions: 12 h, 1 µM, compound concentration 1 uM, replicate 2
Attribute Measured: Population Healthy Nuclei (%)
One number for each entry, in %.

Look over these answered cases.
N#Cc1c(N)nc(SCc2csc(-c3ccc(Cl)cc3)n2)c(C#N)c1-c1ccc(OCCO)cc1 = 43
c1cc(OCCCN2CCCCC2)ccc1CN1CCCCC1 = 51
CN(C)CCCc1cc(C(=O)Nc2ccc(-c3ccncc3)cc2)ccc1O.Cl.Cl = 52

Now for a further compound.
Input COc1ccc2c(c1)C(C(=O)N(Cc1ccc(N(C)C)cc1)c1ccc(C(C)C)cc1)CCC2.Cl (centres undefined) . Output Population Healthy Nuclei (%): 55

###

# System: U2OS
# Assay: Multiplex assay against U2OS
# Type: toxicity, cell-based
# Experimental Conditions: human, 24 h, 10 µM, compound concentration 10 uM, replicate 2
Attribute Measured: Population Apoptotic (%)
One number for each entry, in %.

CSc1ccccc1N1CCN(CCCCCC(=O)NC2CCCc3ccccc32)CC1.Cl (stereo not given) = 94
COc1ccc2c(c1)C(C(=O)N(Cc1ccc(N(C)C)cc1)c1ccc(C(C)C)cc1)CCC2.Cl (stereo not given) = 86
CC(C)(C)c1ccc(S(=O)(=O)Nc2ccc(Cl)cc2C(=O)c2cc[n+]([O-])cc2)cc1 = 71

Would you be so kind as to report Population Apoptotic (%) for each listed record?
1. COc1c(C)cc(NC(=O)c2nn(Cc3ccc(F)cc3)c3c2CN(C(=O)c2ccc[nH]2)C[C@]3(C)C(N)=O)cc1C
2. O=C(O)Cc1ccccc1Nc1c(Cl)cccc1Cl

65
81

###

# Tested on: U2OS
# Assay: Multiplex assay against U2OS
# Type: toxicity, cell-based
# Experimental Conditions: human, 12 h, 10 µM, compound concentration 10 uM, replicate 2
For each of the compounds below, state its Population Fragmented Nuclei (%).
Give bare numbers, in %.

CCCC(CCC)C(=O)O [VALPROIC ACID] = 21
Cc1ccc(-c2ccc(F)cc2COc2ccc(CCC(=O)O)cc2)cc1 = 14
Cc1nc2ccc(Oc3ccc(F)cc3)cc2c(=O)n1C[C@H]1CCCN(C(C)C)C1.Cl = 24
N[C@@]1(C(=O)O)CO[C@H]2[C@H](C(=O)O)[C@H]21 [LY-379268] = 19
CCCN1CCC[C@@H]2Cc3n[nH]cc3C[C@H]21.Cl [QUINPIROLE HYDROCHLORIDE] = 9

Would you be so kind as to report Population Fragmented Nuclei (%) for each listed record?
1. COc1cc(NC(=O)CCN2CCC(OC(=O)Nc3ccccc3-c3ccccc3)CC2)c(Cl)cc1CNC[C@H](O)c1ccc(O)c2[nH]c(=O)ccc12 [BATEFENTEROL]
2. CN(C)CCCc1cc(C(=O)Nc2ccc(-c3ccncc3)cc2)ccc1O.Cl.Cl
3. CC[C@H]1OC(=O)[C@H](C)[C@@H](O[C@H]2C[C@@](C)(OC)[C@@H](O)[C@H](C)O2)[C@H](C)[C@@H](O[C@@H]2O[C@H](C)C[C@H](N(C)C)[C@H]2O)[C@@]2(C)CC(C)=C(O2)[C@H](C)[C@@H](O)[C@]1(C)O
4. COc1ccc2c(c1)C(C(=O)N(Cc1ccc(N(C)C)cc1)c1ccc(C(C)C)cc1)CCC2.Cl (configuration not stated)
5. CSc1ccccc1N1CCN(CCCCCC(=O)NC2CCCc3ccccc32)CC1.Cl (configuration not stated)
6. Cl.Clc1ccc2nsnc2c1NC1=NCCN1 [TIZANIDINE HYDROCHLORIDE]

[18, 24, 21, 16, 23, 22]

Would you be so kind as to report Population Fragmented Nuclei (%) for each listed record?
1. C[C@@H]1C[C@H]2[C@@H]3CCC4=CC(=O)C=C[C@]4(C)[C@@]3(F)[C@@H](O)C[C@]2(C)[C@@]1(O)C(=O)CO [DEXAMETHASONE]
2. CC(C)(C)c1ccc(S(=O)(=O)Nc2ccc(Cl)cc2C(=O)c2cc[n+]([O-])cc2)cc1 [VERCIRNON]
3. N#Cc1c(N)nc(SCc2csc(-c3ccc(Cl)cc3)n2)c(C#N)c1-c1ccc(OCCO)cc1 [CAPADENOSON]
4. Oc1c(CN2CCN(c3ccccn3)CC2)cc(Cl)c2cccnc12

[16, 21, 24, 18]

Would you be so kind as to report Population Fragmented Nuclei (%) for each listed record?
1. CNC[C@H](O)c1ccc(O)c(O)c1 [EPINEPHRINE]
2. O=S(=O)(c1ccccc1)c1cnc2c(N3CCNCC3)cccc2c1 [INTEPIRDINE]

1. 33
2. 10
